meta.source: patent US6469168B1

Where a name gives a salt, the structure may show the parent alone.
Entries and their measured melting point follow.

Before answering, review these 3 worked examples.
COMPOUND	melting point
COc1ccccc1Cc1c(N)nc(SCCN2CCN(C(C)=O)CC2)nc1N [Example 16]	198.5 to 199.5 °C
COc1ccccc1Cc1c(N)nc(SCCN2CCN(C(C)C)CC2)nc1N (as salt: hydrochloride) (hydrate or solvate) [Example 5, trihydrochloride hydrate]	253 to 255 °C
COc1ccccc1Cc1c(N)nc(SCCN2CCN(CCCN(C)C)CC2)nc1N (as salt: hydrochloride) (hydrate or solvate) [Example 26]	262 to 264 °C

query: What value of melting point has been recorded for this entry: COc1ccccc1Cc1c(N)nc(SCCCN2CCNCC2)nc1N (as salt: hydrochloride) [Example 10, trihydrochloride]
result: 197 to 198 °C

query: Could you tell me which melting point is on file for COc1ccccc1Cc1c(N)nc(SCCCN2CCN(C(C)=O)CC2)nc1N [Example 12] ?
result: 208 to 209 °C

query: Given the compound COc1ccccc1Cc1c(N)nc(SCCCCN2CCNCC2)nc1N (as salt: hydrochloride) [Example 18, trihydrochloride] , what is its reported melting point?
result: 255 °C

query: GET /values?readout=melting point&item= Nc1nc(SCCCN2CCNCC2)nc(N)c1Cc1ccc(Cl)cc1 (as salt: hydrochloride) (hydrate or solvate) [Example 17, trihydrochloride trihydrate]
result: 187 °C

query: Which melting point reading was recorded for the compound COc1ccccc1Cc1c(N)nc(SCCCN2CCN(C=O)CC2)nc1N [Example 9] ?
result: 174 to 176 °C

query: melting point lookup needed for CC(C)c1ccc(Cc2c(N)nc(SCCN3CCNCC3)nc2N)cc1 [Example 25] , thanks.
result: 63 to 64 °C

query: # melting point lookup, item Nc1nc(SCCN2CCNCC2)nc(N)c1Cc1ccc(F)cc1 (as salt: hydrochloride) (hydrate or solvate) [Example 19, trihydrochloride hydrate]
result: 168 to 170 °C

query: Quick one: melting point of COc1ccccc1Cc1c(N)nc(SCCCCN2CCN(C)CC2)nc1N (as salt: hydrochloride) (hydrate or solvate) [Example 8, trihydrochloride hydrate] ?
result: 202 °C
